Source of measurements: ChEMBL document CHEMBL3351355

# Tgt: Alpha-1A adrenergic receptor (Rattus norvegicus) (UniProt P43140)
# Sequence (whole entry): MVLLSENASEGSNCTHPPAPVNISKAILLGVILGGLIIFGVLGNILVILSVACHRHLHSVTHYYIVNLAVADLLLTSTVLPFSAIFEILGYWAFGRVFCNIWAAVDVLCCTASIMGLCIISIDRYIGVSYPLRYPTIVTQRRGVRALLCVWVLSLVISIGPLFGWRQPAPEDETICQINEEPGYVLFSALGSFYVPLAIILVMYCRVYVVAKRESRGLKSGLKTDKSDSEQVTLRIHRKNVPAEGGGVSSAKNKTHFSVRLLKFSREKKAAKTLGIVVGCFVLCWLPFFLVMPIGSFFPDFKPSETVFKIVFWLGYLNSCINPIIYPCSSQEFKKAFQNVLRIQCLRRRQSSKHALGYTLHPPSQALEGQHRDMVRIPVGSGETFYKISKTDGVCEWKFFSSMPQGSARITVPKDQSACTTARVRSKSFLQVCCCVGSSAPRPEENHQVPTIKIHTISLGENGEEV
# Assay info: Antagonist activity at alpha1A adrenoceptor in Wistar rat vas deferans assessed as noradrenaline-induced contractions after 30 mins
Recorded pKb values for a group of compounds are listed next.
Reported property: pKb

>>> measured_number("COc1ccccc1N1CCN(CC2COC3(CCOCC3)O2)CC1 (stereo unspecified)")
7.55
>>> measured_number("COc1ccccc1N1CCN(CC2COC3(CCN(S(=O)(=O)c4ccc(OC(F)(F)F)cc4)CC3)O2)CC1 (stereo unspecified)")
6.98
>>> measured_number("COc1ccccc1N1CCN(CC2COC3(CCN(C(=O)c4ccco4)CC3)O2)CC1 (stereo unspecified)")
7.43
>>> measured_number("COc1ccccc1N1CCN(CC2COC3(CCS(=O)(=O)CC3)O2)CC1 (stereo unspecified)")
7.34
>>> measured_number("COc1ccccc1N1CCN(CC2COC3(CCN(S(C)(=O)=O)CC3)O2)CC1 (stereo unspecified)")
7.41
>>> measured_number("COc1ccccc1N1CCN(CC2COC3(CCN(S(=O)(=O)c4ccc(Cl)cc4)CC3)O2)CC1 (stereo unspecified)")
7.24
>>> measured_number("COc1ccccc1N1CCN(CC2COC3(CCN(S(=O)(=O)c4ccccc4)CC3)O2)CC1 (stereo unspecified)")
7.48
>>> measured_number("COc1ccccc1N1CCN(CC2COC3(CCN(C(=O)C4CCCN4)CC3)O2)CC1 (stereo unspecified)")
7.43
>>> measured_number("COc1ccccc1N1CCN(CC2COC3(CCN(S(=O)(=O)c4ccc(C)cc4)CC3)O2)CC1 (stereo unspecified)")
7.4
>>> measured_number("COc1ccccc1N1CCN(CC2COC3(CCN(C(=O)c4ccc(C(F)(F)F)cc4)CC3)O2)CC1 (stereo unspecified)")
7.79
>>> measured_number("COc1ccccc1N1CCN(CC2COC3(CCN(C(=O)Nc4ccccc4)CC3)O2)CC1 (stereo unspecified)")
7.22
>>> measured_number("COc1ccccc1N1CCN(CC2COC3(CCN(Cc4ccccc4)CC3)O2)CC1 (stereo unspecified)")
7.72
>>> measured_number("COc1ccccc1N1CCN(CC2COC3(CCN(S(=O)(=O)c4ccc([N+](=O)[O-])cc4)CC3)O2)CC1 (stereo unspecified)")
7.74
>>> measured_number("COc1ccccc1N1CCN(CC2COC3(CCN(C(=O)C(F)(F)F)CC3)O2)CC1 (stereo unspecified)")
6.97
>>> measured_number("COc1ccccc1N1CCN(CC2COC3(CCN(c4ccccc4)CC3)O2)CC1 (stereo unspecified)")
7.78
>>> measured_number("COc1ccccc1N1CCN(CC2COC3(CCN(C(C)=O)CC3)O2)CC1 (stereo unspecified)")
7.17

====

# Tgt: UniProt P35348
# Assay info: Displacement of [3H]prazosin from human recombinant alpha1A adrenoceptor expressed in CHO cells after 30 mins by liquid scintillation counting
pKi: −log10 of the molar value.
Recorded pKi values for a group of molecules are listed next.
Reported property: pKi

>>> measured_number("COc1ccccc1N1CCN(CC2COC3(CCN(S(=O)(=O)c4ccc(OC(F)(F)F)cc4)CC3)O2)CC1 (stereo not given)")
8.05
>>> measured_number("CCCCNC(=O)N1CCC2(CC1)OCC(CN1CCN(c3ccccc3OC)CC1)O2 (stereo not given)")
7.70
>>> measured_number("COc1ccccc1N1CCN(CC2COC3(CCN(C(=O)c4ccc(C(F)(F)F)cc4)CC3)O2)CC1 (stereo not given)")
7.99
>>> measured_number("COc1ccccc1N1CCN(CC2COC3(CCN(c4ccccc4)CC3)O2)CC1 (stereo not given)")
8.19
>>> measured_number("COc1ccccc1N1CCN(CC2COC3(CCOCC3)O2)CC1 (stereo not given)")
7.77

====

# Tgt: UniProt P43140
# Assay info: Antagonist activity at alpha1A adrenoceptor in Wistar rat vas deferans assessed as noradrenaline-induced contractions after 30 mins
Reported property: pKb

>>> measured_number("COc1ccccc1N1CCN(CC2COC3(CCNCC3)O2)CC1 (stereo not given)")
7.74
>>> measured_number("COc1ccccc1N1CCN(CC2COC3(CCN(C(=O)NC(C)(C)C)CC3)O2)CC1 (stereo not given)")
7.63
>>> measured_number("COc1ccccc1N1CCN(CC2COC3(CCN(S(=O)(=O)c4cccc([N+](=O)[O-])c4)CC3)O2)CC1 (stereo not given)")
7.97
>>> measured_number("COc1ccccc1N1CCN(CC2COC3(CCCCC3)O2)CC1 (stereo not given)")
6.78
>>> measured_number("COc1ccccc1N1CCN(CC2COC3(CCN(S(=O)(=O)c4cccs4)CC3)O2)CC1 (stereo not given)")
7.46
>>> measured_number("COc1ccccc1N1CCN(CC2COC3(CCN(C(=O)C4CCCCC4)CC3)O2)CC1 (stereo not given)")
6.95
>>> measured_number("COc1ccccc1N1CCN(CC2COC3(CCSCC3)O2)CC1 (stereo not given)")
7.6
>>> measured_number("COc1ccccc1N1CCN(CC2COC3(CCN(c4ccccn4)CC3)O2)CC1 (stereo not given)")
7.63
>>> measured_number("COc1ccccc1N1CCN(CC2COC3(CCN(C(=O)c4ccccc4)CC3)O2)CC1 (stereo not given)")
7.71
>>> measured_number("CCCCNC(=O)N1CCC2(CC1)OCC(CN1CCN(c3ccccc3OC)CC1)O2 (stereo not given)")
7.38

====

# Tgt: Alpha-1A adrenergic receptor (Homo sapiens, UniProt P35348)
# Sequence (P35348 whole entry): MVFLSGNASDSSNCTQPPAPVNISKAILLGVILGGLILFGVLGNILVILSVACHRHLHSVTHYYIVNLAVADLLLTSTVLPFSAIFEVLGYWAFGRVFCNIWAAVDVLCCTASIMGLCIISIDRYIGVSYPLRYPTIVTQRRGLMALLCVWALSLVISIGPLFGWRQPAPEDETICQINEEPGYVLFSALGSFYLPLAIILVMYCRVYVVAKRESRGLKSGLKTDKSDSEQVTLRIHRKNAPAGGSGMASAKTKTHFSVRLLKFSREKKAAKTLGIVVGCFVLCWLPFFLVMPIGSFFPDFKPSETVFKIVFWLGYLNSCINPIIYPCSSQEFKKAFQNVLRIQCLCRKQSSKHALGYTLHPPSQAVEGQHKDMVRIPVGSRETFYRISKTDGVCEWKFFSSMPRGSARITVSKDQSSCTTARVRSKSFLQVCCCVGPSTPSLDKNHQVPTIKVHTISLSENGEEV
# Assay info: Displacement of [3H]prazosin from human recombinant alpha1A adrenoceptor expressed in CHO cells after 30 mins by liquid scintillation counting
pKi: −log10 of the molar value.
Values of pKi greater than or equal to 8 map to condition met; values below map to condition not met.

>>> assigned_category("COc1ccccc1N1CCN(CC2COC3(CCN(S(=O)(=O)c4cccc([N+](=O)[O-])c4)CC3)O2)CC1 (stereo not given)")
"condition met"
>>> assigned_category("COc1ccccc1N1CCN(CC2COC3(CCN(S(C)(=O)=O)CC3)O2)CC1 (stereo not given)")
"condition not met"
>>> assigned_category("COc1ccccc1N1CCN(CC2COC3(CCN(S(=O)(=O)c4ccc([N+](=O)[O-])cc4)CC3)O2)CC1 (stereo not given)")
"condition met"
>>> assigned_category("COc1ccccc1N1CCN(CC2COC3(CCNCC3)O2)CC1 (stereo not given)")
"condition not met"
>>> assigned_category("COc1ccccc1N1CCN(CC2COC3(CCN(C(=O)C(F)(F)F)CC3)O2)CC1 (stereo not given)")
"condition not met"
>>> assigned_category("COc1ccccc1N1CCN(CC2COC3(CCN(S(=O)(=O)c4ccc(C)cc4)CC3)O2)CC1 (stereo not given)")
"condition met"

====

Recorded pKb values for a group of molecules are listed next.
# Tgt: Alpha-1B adrenergic receptor (Rattus norvegicus)
# Sequence (whole entry): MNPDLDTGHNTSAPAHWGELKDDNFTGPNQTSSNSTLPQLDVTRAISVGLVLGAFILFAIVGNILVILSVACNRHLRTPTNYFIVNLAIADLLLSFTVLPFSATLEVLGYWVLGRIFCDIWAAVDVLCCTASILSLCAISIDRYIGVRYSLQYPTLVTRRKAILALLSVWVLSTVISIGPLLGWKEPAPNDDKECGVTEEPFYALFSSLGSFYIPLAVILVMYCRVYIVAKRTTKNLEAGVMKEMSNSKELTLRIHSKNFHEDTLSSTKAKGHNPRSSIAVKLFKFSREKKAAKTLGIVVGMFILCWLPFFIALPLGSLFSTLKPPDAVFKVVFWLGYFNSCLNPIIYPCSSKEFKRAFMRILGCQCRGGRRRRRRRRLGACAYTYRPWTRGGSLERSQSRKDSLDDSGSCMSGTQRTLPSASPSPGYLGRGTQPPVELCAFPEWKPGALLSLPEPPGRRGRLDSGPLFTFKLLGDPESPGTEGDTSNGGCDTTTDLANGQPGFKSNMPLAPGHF
# Assay info: Antagonist activity at alpha1B adrenoceptor in Wistar rat spleen assessed as phenylephrine-induced contractions after 30 mins
Reported property: pKb

>>> measured_number("COc1ccccc1N1CCN(CC2COC3(CCOCC3)O2)CC1 (stereo not drawn)")
7.17
>>> measured_number("COc1ccccc1N1CCN(CC2COC3(CCN(S(=O)(=O)c4cccs4)CC3)O2)CC1 (stereo not drawn)")
8.05
>>> measured_number("COc1ccccc1N1CCN(CC2COC3(CCN(S(=O)(=O)c4ccc(Cl)cc4)CC3)O2)CC1 (stereo not drawn)")
7.36
